All figures here come from ChEMBL document CHEMBL3098129.

target_system: RAC-alpha serine/threonine-protein kinase (Homo sapiens)
Sequence (P31749 whole entry): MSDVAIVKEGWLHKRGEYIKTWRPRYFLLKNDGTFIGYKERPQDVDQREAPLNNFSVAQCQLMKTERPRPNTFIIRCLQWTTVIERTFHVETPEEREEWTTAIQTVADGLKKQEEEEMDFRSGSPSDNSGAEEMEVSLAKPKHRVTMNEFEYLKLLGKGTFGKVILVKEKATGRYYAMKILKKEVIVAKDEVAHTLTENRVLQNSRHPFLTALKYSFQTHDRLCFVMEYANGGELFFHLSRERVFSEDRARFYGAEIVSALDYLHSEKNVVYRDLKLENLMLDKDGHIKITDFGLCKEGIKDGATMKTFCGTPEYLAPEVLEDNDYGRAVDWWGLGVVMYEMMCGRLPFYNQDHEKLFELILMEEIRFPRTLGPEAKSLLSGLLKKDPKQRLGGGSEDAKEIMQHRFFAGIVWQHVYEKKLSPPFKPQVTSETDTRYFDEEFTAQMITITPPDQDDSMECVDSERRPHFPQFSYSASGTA
protocol_summary: Inhibition of recombinant AKT1 (unknown origin) using serine/threonine 06 peptide as substrate after 1 hr by FRET based Z'-LYTE assay
pIC50: −log10 of the molar value.
measured_metric: pIC50

C=CC(=O)c1ccccc1 ... 4.91

(a) COC/C=C/C(=O)c1ccccc1
(b) COC(=O)CC/C=C/C(=O)c1ccccc1
(c) C[C@H]1O[C@@H]2CC(=O)O[C@@H]2C2=C1C(=O)c1ccccc1C2=O
(d) O=C1C[C@@H](O)[C@@H](C2=CC(=O)c3ccccc3C2=O)O1
Prompt: Sort by pIC50, descending. # the answer lists labels in the order requested
Completion: c, d, b, a
(c: 6.55, d: 5.53, b: 4.86, a: 4.30)

----------
target_system: cAMP-dependent protein kinase catalytic subunit alpha (Homo sapiens, UniProt P17612)
protocol_summary: Inhibition of PKAalpha (unknown origin) using serine/threonine 01 peptide as substrate after 1 hr by FRET based Z'-LYTE assay
measured_metric: IC50

Worked examples follow.
C[C@H]1O[C@@H]2CC(=O)O[C@@H]2C2=C1C(=O)c1ccccc1C2=O ... > 100 µM
C=CC(=O)c1ccccc1 ... > 100 µM
COC/C=C/C(=O)c1ccccc1 ... > 100 µM
COC(=O)CC/C=C/C(=O)c1ccccc1 ... > 100 µM

Below: the item to evaluate.
O=C1C[C@@H](O)[C@@H](C2=CC(=O)c3ccccc3C2=O)O1 has a reported IC50 of 0.43 µM
